Origin of the recorded values: ChEMBL document CHEMBL4196076

Test system: FaDu
METHOD DESCRIPTION: Cytotoxicity against human FADU cells after 96 hrs by sulforhodamine-B assay
Type: functional, cell-based
pEC50: −log10 of the molar value.
METRIC: pEC50

1. C=CCN(CC(=O)NC(C)(C)C)C(=O)[C@]12CCC(C)(C)C[C@H]1C1=CC[C@@H]3[C@@]4(C)CC[C@H](O)C(C)(C)[C@@H]4CC[C@@]3(C)[C@]1(C)CC2: 4.59
2. CC(=O)O[C@H]1CC[C@]2(C)[C@H]3CC=C4[C@@H]5CC(C)(C)CC[C@]5(C(=O)OCC(=O)NC(C)(C)C)CC[C@@]4(C)[C@]3(C)CC[C@H]2C1(C)C: 4.90
3. CC(=O)O[C@@H]1C[C@]2(C)[C@H]3CC=C4[C@@H]5CC(C)(C)CC[C@]5(C(=O)N(CC(=O)NC(C)(C)C)Cc5ccoc5)CC[C@@]4(C)[C@]3(C)CC[C@H]2C(C)(C)[C@H]1OC(C)=O: 5.52
